measured_on: UniProtKB Q9JHW9
Sequence (Q9JHW9 1-512): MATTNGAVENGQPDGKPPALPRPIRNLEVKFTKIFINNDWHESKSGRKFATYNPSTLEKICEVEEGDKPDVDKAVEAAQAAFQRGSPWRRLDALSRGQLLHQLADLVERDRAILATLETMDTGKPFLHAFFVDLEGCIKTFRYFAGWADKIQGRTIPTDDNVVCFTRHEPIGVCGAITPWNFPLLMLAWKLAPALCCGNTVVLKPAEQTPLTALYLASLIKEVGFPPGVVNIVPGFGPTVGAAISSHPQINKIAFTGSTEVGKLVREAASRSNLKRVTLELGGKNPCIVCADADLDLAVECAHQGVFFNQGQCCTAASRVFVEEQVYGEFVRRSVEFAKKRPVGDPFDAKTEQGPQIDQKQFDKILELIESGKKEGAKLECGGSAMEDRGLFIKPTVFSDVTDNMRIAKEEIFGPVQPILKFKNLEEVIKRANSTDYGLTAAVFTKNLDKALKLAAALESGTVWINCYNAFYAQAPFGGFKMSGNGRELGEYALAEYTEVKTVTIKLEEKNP
assay_remarks: Aldh1a3 enzyme inhibition assay, recombinant mALDH1a3
assay_conditions: resorufin fluorescence, 20° C.
pIC50: −log10 of the molar value.
pIC50: recorded values
property_label: pIC50

* CCc1cc(C(=O)Nc2ccc3c(c2)CCC(=O)N3)ccn1 [Compound 29] | < 5.30
* N#Cc1cccc2nc(Nc3ccc4c(c3)CCC(=O)N4)ccc12 [Compound 86] | 5.30 to 6.00
* CCc1cnccc1CC(=O)Nc1ccc2c(c1)CCC(=O)N2 [Compound 31] | < 5.30
* CC1(C)Cc2cc(Nc3ccc4c(n3)CCCC4=O)ccc2NC1=O [Compound 127] | < 5.30
* CCc1c(C(=O)Nc2ccc3c(c2)CCC(=O)N3)cc[nH]c1=O [Compound 50] | 5.30 to 6.00
* CCc1cnccc1C(=O)Nc1cc2c(cc1F)NC(=O)C(C)(C)C2 [Compound 38] | 5.30 to 6.00
* CC1(C)Cc2cc(Nc3nc4ccccc4[nH]3)ccc2NC1=O [Compound 98] | 5.30 to 6.00
* CCc1cnccc1C(=O)N(C)c1ccc2c(c1)CCC(=O)N2 [Compound 27] | < 5.30
* CC1(C)Cc2cc(Nc3cnc4ccc(C(=O)O)cc4n3)ccc2NC1=O [Compound 118] | < 5.30
* CCc1cnccc1C(=O)Nc1ccc2c(c1)C(C)CC(=O)N2 (stereo not shown) [Compound 64] | 6.00 to 6.60
* CC1(C)Cc2cc(Nc3ccc(Cl)cn3)ccc2NC1=O [Compound 123] | < 5.30
* N#Cc1cccc2ncc(Nc3ccc4c(c3)CCC(=O)N4)cc12 [Compound 100] | < 5.30
* O=C1CCc2cc(Nc3cnc4ccccc4n3)ncc2N1 [Compound 126] | > 7.00
* Cc1ccc2ccc(Nc3ccc4c(c3)CCC(=O)N4)nc2c1 [Compound 91] | 5.30 to 6.00
* Cc1cc(C(=O)Nc2ccc3c(c2)CC2(CC2)C(=O)N3)c(Cl)cn1 [Compound 68] | < 5.30
* CCc1c(C(=O)Nc2ccc3c(c2)CCC(=O)N3)ccnc1C [Compound 55] | 6.00 to 6.60
